Molecular target: Human Polymorphonuclear Leukocyte Elastase (Homo sapiens, UniProt P08246)
Construct: Crude extract of human polymorphonuclear leukocytes (PMN) containing elastase activity; endogenous in cells; host or cells: human polymorphonuclear leukocytes (crude extract)
Sequence (P08246 30-247 limits assumed): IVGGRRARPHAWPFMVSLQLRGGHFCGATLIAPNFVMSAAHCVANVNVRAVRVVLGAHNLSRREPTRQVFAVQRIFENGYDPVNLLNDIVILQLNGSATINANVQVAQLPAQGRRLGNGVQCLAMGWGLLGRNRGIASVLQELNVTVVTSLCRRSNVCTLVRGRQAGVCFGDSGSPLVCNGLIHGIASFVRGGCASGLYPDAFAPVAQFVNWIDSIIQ
Assay: Inhibition of human polymorphonuclear leukocyte (granulocyte) elastase via hydrolysis of Boc-AAPAN
Assay type: biochemical
Conditions: crude human PMN extract, 0.2 mM Boc-AAPAN, pH 7.5, 410 mμ, 2 minutes after zero time; read-out: IC50 (dosage for 50% inhibition of the enzyme activity) (converted)
Hi all, reminder that labels come from IC50, split as zone 1 = under 1 µM, zone 2 = from 1 µM up to 9 µM, zone 3 = 9 µM and over

| compound | discrete.label |
| --- | --- |
| CC1(C)[C@H](C(=O)OCc2ccccc2)N2C(=O)[C@H](OCc3ccccc3)[C@H]2S1(=O)=O | zone 3 |
| CC[C@@]1(NC(=O)C(F)(F)F)C(=O)N2[C@@H](C(=O)OCc3ccccc3)C(C)(C)S(=O)(=O)[C@@H]21 | zone 2 |
| Cc1ccc(S(=O)(=O)N[C@H]2C(=O)N3[C@@H](C(=O)OCc4ccccc4)C(C)(C)S(=O)(=O)[C@H]23)cc1 | zone 1 |
| CC1(C)[C@H](C(=O)OCC(F)(F)F)N2C(=O)[C@H](NC(=O)C(F)(F)F)[C@H]2S1(=O)=O | zone 1 |
| CN(Cc1ccc(C(=O)OC(C)(C)C)cc1)C(=O)[C@@H]1N2C(=O)[C@H](NC(=O)C(F)(F)F)[C@H]2S(=O)(=O)C1(C)C | zone 2 |
| CC(=O)O[C@H]1C(=O)N2[C@@H]1[S+]([O-])C(C)(C)[C@@H]2C(=O)OCc1ccccc1 (stereo partly drawn) | zone 3 |
| CC(C)(C)OC(=O)c1ccc(COC(=O)[C@@H]2N3C(=O)[C@@H](NC(=O)C(F)(F)F)[C@H]3S(=O)(=O)C2(C)C)cc1 | zone 1 |
| CC1(C)S[C@@H]2[C@H](NC(=O)C(F)(F)F)C(=O)N2[C@H]1C(=O)OCc1ccccc1 | zone 3 |
| CC1(C)[C@H](C(=O)OCc2ccc(C(=O)O)cc2)N2C(=O)[C@H](NC(=O)C(F)(F)F)[C@H]2[S+]1[O-] (stereo partly drawn) | zone 2 |
| CN(Cc1ccc(C(=O)O)cc1)C(=O)[C@@H]1N2C(=O)[C@H](NC(=O)C(F)(F)F)[C@H]2S(=O)(=O)C1(C)C | zone 2 |
| CCO[C@H]1C(=O)N2[C@@H](C(=O)OCc3ccccc3)C(C)(C)S(=O)(=O)[C@H]12 | zone 2 |
| CC1(C)S[C@@H]2[C@@H](COC(=O)NCc3ccccc3)C(=O)N2[C@H]1C(=O)OCc1ccccc1 | zone 3 |
